- System: KM12 colon
- assay_method_text: NCI-60 one-dose screen, 48 h
- assay_setup: 10 µM unless noted
Compounds without any hit were thinned out: in the full panel of roughly 83,000, 20% have a hit. The source made the active and inactive calls. How the source made its calls: active means growth percent below 10; inactive means the rest.
Outcomes: True (active), False (inactive)

[[record]]
compound = "COc1ccc(N2CCN(c3ccc(NC4=C(Cl)C(=O)c5ncccc5C4=O)cc3)CC2)cc1"
qualitative_label = "False"

[[record]]
compound = "COc1ccccc1/C=C1\\Oc2cc(OCCN3CCCC3)ccc2C1=O"
qualitative_label = "False"

[[record]]
compound = "CCOC(=O)[C@@H](C)C[C@H](Cc1ccccc1)NC(=O)c1csc([C@@H](C[C@H](C(C)C)N(C)C(=O)[C@@H](NC(=O)[C@H]2C[C@H](O[Si](C)(C)C(C)(C)C)CCN2C)C(C)C)OC(C)=O)n1"
qualitative_label = "True"

[[record]]
compound = "CCN1Cc2nc3sc(C)c(C)c3c(=O)n2C=C1C"
qualitative_label = "False"

[[record]]
compound = "N#Cc1cccc(-c2ccc3c(c2)NC(=O)/C3=C\\c2ccc[nH]2)c1"
qualitative_label = "False"

[[record]]
compound = "COc1ccc(C(=O)c2cc(C)c(OC)c(C)c2)c(OC)c1NC(C)=O"
qualitative_label = "True"

[[record]]
compound = "C=C1C(=O)O[C@H]2[C@H]1CC/C(COC(=O)NCc1c[nH]c3ccc(Br)cc13)=C\\CC[C@@]1(C)O[C@@H]21"
qualitative_label = "False"

[[record]]
compound = "C=CCN1C(=O)/C(=C/C(=O)OC)S/C1=N\\NC(=O)c1cc2ccc1/C=C\\c1ccc(cc1)/C=C\\2"
qualitative_label = "False"

[[record]]
compound = "CCCCCCOc1ccc(/C=N/Nc2cc(C)nc3ccc(Cl)cc23)cc1"
qualitative_label = "True"

[[record]]
compound = "COc1cc2nc(-c3ccc(Cl)cc3)cc(OCCCN3CCC(O)CC3)c2cc1OC"
qualitative_label = "False"

[[record]]
compound = "O=C(Nc1ccc(-c2ccc3c(c2)NC(=O)/C3=C\\c2ccc[nH]2)cc1)NC1CC1"
qualitative_label = "False"

[[record]]
compound = "CN(C)CC(O)c1ccc(/C=C/c2ccc(Cl)cc2)cc1 (stereo not drawn)"
qualitative_label = "True"

[[record]]
compound = "Cc1nc2sccn2c1-c1cn2ccsc2n1"
qualitative_label = "False"

[[record]]
compound = "Cc1ccc(-c2csc(NC(=O)CSc3nc(-c4ccccc4)cc(=O)[nH]3)n2)cc1"
qualitative_label = "False"

[[record]]
compound = "COc1ccc(/C=C/c2nc(Nc3ccc(S(=O)(=O)Nc4nc(C)cc(C)n4)cc3)c3ccccc3n2)cc1"
qualitative_label = "False"

[[record]]
compound = "CN(CCN(C)c1ccc(C(=N)N)cc1)c1ccc(C(=N)N)cc1"
qualitative_label = "False"

[[record]]
compound = "CCOC(=O)Oc1c(OC)cc(C(=O)c2ccc(OC)c(O)c2OC)cc1OC"
qualitative_label = "False"

[[record]]
compound = "CCCCOc1ccc(/C=N/Nc2cc(C)nc3ccc(Br)cc23)cc1"
qualitative_label = "True"

[[record]]
compound = "c1ccc(Cn2cnc3ccc(-c4nc(-c5ccc6c(c5)ncn6C5CCCCC5)cn5ccnc45)cc32)cc1"
qualitative_label = "True"

[[record]]
compound = "CCN(CC)CCn1c(=O)c2cc(OC)c(OC)cc2c2ccc3cc4c(cc3c21)OCO4"
qualitative_label = "False"

[[record]]
compound = "CCN(CC)c1ccc(/C=N/NC(=O)CSc2nc3ccccc3c(=O)n2Cc2ccc(S(N)(=O)=O)cc2)c(O)c1"
qualitative_label = "False"

[[record]]
compound = "CC(=O)O[C@H]1Cc2c([nH]c3ccccc23)[C@@H](c2ccc(Cl)cc2)N1C(=O)CCNC(C)(C)C"
qualitative_label = "False"

[[record]]
compound = "Oc1cccc(CCc2ccc(Oc3cc(CCc4cccc(O)c4)cc(O)c3O)cc2)c1"
qualitative_label = "False"

[[record]]
compound = "O=C(Cc1ccccc1)NNc1nc(Cl)nc(N2CCN(C(c3ccccc3)c3ccccc3)CC2)n1"
qualitative_label = "False"

[[record]]
compound = "Cc1ccc(CNc2c3ccccc3nc3cc(NC(=O)CCN4CCCC4)ccc23)cc1"
qualitative_label = "True"

[[record]]
compound = "COC(=O)C(CC=O)C(=O)C(=O)Nc1cccc(C(F)(F)F)c1 (stereo not drawn)"
qualitative_label = "False"

[[record]]
compound = "COc1cc(C2C3CC4CCCC[C@H]4N3[C@@]3(C(=O)Nc4cc(Cl)ccc43)C2C(=O)c2nc3ccccc3[nH]2)cc(OC)c1OC (stereo partly drawn)"
qualitative_label = "False"

[[record]]
compound = "CCCOc1ccc(/C=N/Nc2cc(C)nc3ccc(Br)cc23)cc1"
qualitative_label = "False"

[[record]]
compound = "CC(c1ccccc1)C(C(=O)c1ccccc1)c1ccccc1 (stereo not drawn)"
qualitative_label = "False"

[[record]]
compound = "c1ccc(-c2cn3c(ccc4ccccc43)n2)cc1"
qualitative_label = "False"

[[record]]
compound = "O=C1NN(C(=O)c2ccccc2)C(c2ccc(Cl)c(Cl)c2)=C/C1=C\\c1ccc([N+](=O)[O-])cc1"
qualitative_label = "False"

[[record]]
compound = "Cc1cnc(C(=O)Nc2nc3ccc(S(=O)(=O)Nc4ccc(C(C)(C)C)cc4)cc3[nH]2)cn1"
qualitative_label = "False"

[[record]]
compound = "CCOC(=O)c1cc(C(=O)c2cc(OC)cc(OC)c2)n2ccc3ccccc3c12"
qualitative_label = "False"

[[record]]
compound = "Cc1c(C)c([N+](=O)[O-])c(C)c([N+](=O)[O-])c1C"
qualitative_label = "False"

[[record]]
compound = "CC(=O)O[C@@H]1C2CCC3C(CC[C@@]4(C)C3CC[C@@H]4C(C)N(C)C)[C@@]2(C)CC[C@@H]1NC(=O)C=C(C)C (stereo partly drawn)"
qualitative_label = "True"

[[record]]
compound = "Cc1cccc(NC(=O)Nc2ccc(-n3cnc4cc(-c5ccc(O)cc5)ccc43)cc2)c1"
qualitative_label = "False"

[[record]]
compound = "COc1ccc(OC)c(CCn2cncc2-c2c[nH]c3ccccc23)c1"
qualitative_label = "False"

[[record]]
compound = "CC/C(=C\\c1ccc(OC)cc1)C(=O)c1ccc(OC)cc1"
qualitative_label = "False"


###

- System: T-47D breast
- assay_method_text: NCI-60 one-dose screen, 48 h (100 = growth as untreated, 0 = no growth, -100 = all killed)
- assay_setup: 10 µM unless noted
About 83,000 compounds went through this panel and 20% of them were active in at least one assay; those are over-represented in the sample as a whole.
readout_type: growth (%)

[[record]]
compound = "O=C(Nc1ccc(F)cc1)Nc1ccc(NC(=O)c2cc(Cl)nc3ccccc23)cc1"
test_system = "T-47D breast"
readout_type = "growth"
measurement_unit = "%"
reported_value = 42.9

[[record]]
compound = "COc1ccc(-c2cnc3c(-c4cccc5cnccc45)cnn3c2)cc1"
test_system = "T-47D breast"
readout_type = "growth"
measurement_unit = "%"
reported_value = 22.8

[[record]]
compound = "CC(=O)Nc1ccc(-c2ccc3c(c2)NC(=O)/C3=C\\c2ccc[nH]2)cc1"
test_system = "T-47D breast"
readout_type = "growth"
measurement_unit = "%"
reported_value = 37.5

[[record]]
compound = "C=C1C(=O)O[C@H]2[C@H]1CC/C(CNC(=O)C(C)c1ccc(CC(C)C)cc1)=C\\CC[C@@]1(C)O[C@@H]21 (some centres undefined)"
test_system = "T-47D breast"
readout_type = "growth"
measurement_unit = "%"
reported_value = -46.3

[[record]]
compound = "Cc1cc2nc3c4cc([N+](=O)[O-])ccc4n(CCN(C)C)c3nc2cc1C"
test_system = "T-47D breast"
readout_type = "growth"
measurement_unit = "%"
reported_value = 10.6

[[record]]
compound = "C=C1C(=O)O[C@H]2[C@H]1CC/C(COC(=O)NCc1c[nH]c3ccc(Br)cc13)=C\\CC[C@@]1(C)O[C@@H]21"
test_system = "T-47D breast"
readout_type = "growth"
measurement_unit = "%"
reported_value = -68

[[record]]
compound = "N=C1C(c2nc3ccccc3s2)=C(O)CN1c1cc(Cl)cc(Cl)c1"
test_system = "T-47D breast"
readout_type = "growth"
measurement_unit = "%"
reported_value = 97

[[record]]
compound = "CC(C)(C)c1cc(/C=N/NC(=O)c2ccccc2NC(=O)c2cccs2)c(O)c(C(C)(C)C)c1"
test_system = "T-47D breast"
readout_type = "growth"
measurement_unit = "%"
reported_value = 29.4

[[record]]
compound = "O=[N+]([O-])c1cc(Br)c2cccc3c2c1CC3"
test_system = "T-47D breast"
readout_type = "growth"
measurement_unit = "%"
reported_value = 101


###

- System: MDA-MB-435 melanoma
- assay_method_text: NCI-60 one-dose screen, 48 h
- assay_setup: 10 µM unless noted
Compounds without any hit were thinned out: in the full panel of roughly 83,000, 20% have a hit. Calls of active or inactive are those of the source. Rule for the calls: active = growth percent below 10; inactive = the rest.
Outcomes: true = active, false = inactive

[[record]]
molecule = "COc1ccc(C(=O)CC#N)cc1"
qualitative_label = "false"

[[record]]
molecule = "COc1ccc(C(=O)Cn2c(C(=O)c3ccccc3)nc3ccccc32)cc1"
qualitative_label = "true"

[[record]]
molecule = "O=C1Nc2cc(-c3ccc(NS(=O)(=O)c4ccccc4)cc3)ccc2/C1=C/c1ccc[nH]1"
qualitative_label = "false"

[[record]]
molecule = "COC(=O)C(CC=O)C(=O)C(=O)Nc1cccc(C(F)(F)F)c1 (centres undefined)"
qualitative_label = "false"

[[record]]
molecule = "CC(=O)Nc1ccc(-n2cnc3cc(-c4ccc(OCCN5CCCCC5)cc4)ccc32)cc1"
qualitative_label = "false"

[[record]]
molecule = "CCOC(=O)C1=C(C)NC(SCc2cc(=O)oc3ccc(F)cc23)=N[C@@H]1c1cccc2ccccc12"
qualitative_label = "false"

[[record]]
molecule = "COc1cc2cc(CN3CCN(c4nccc(-c5ccc6ccccc6c5)n4)CC3)c(=O)[nH]c2cc1OC"
qualitative_label = "false"

[[record]]
molecule = "C[C@H]1[C@H]2[C@H]3CC[C@@H]4[C@@]5(C)CC[C@H](O)C(C)(C)[C@@H]5CC[C@@]4(C)[C@]3(C)CC[C@]23CO[C@]1(C)[C@@H](C(=O)/C=C\\c1ccco1)C3"
qualitative_label = "false"

[[record]]
molecule = "COc1cc(/C=N/O)nc(-c2ccccn2)c1"
qualitative_label = "false"

